Target: GPR1 (Homo sapiens)
Construct: host or cells: CHO
Sequence (P46091 whole entry): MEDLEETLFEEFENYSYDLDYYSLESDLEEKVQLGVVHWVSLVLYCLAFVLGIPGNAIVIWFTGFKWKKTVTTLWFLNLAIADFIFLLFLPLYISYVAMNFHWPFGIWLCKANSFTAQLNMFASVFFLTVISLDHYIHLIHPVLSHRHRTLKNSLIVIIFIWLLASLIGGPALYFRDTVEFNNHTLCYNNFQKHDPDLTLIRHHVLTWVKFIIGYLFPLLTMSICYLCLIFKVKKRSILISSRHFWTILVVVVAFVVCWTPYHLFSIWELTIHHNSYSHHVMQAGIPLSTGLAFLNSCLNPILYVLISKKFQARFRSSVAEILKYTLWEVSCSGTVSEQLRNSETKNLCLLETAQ
Assay: PathHunter β-Arrestin assay, GPR1, agonist and antagonist mode
Assay type: cell-based
Settings: GPR1; agonist
Peptide text beside a SMILES is read from it.
VALUE TYPE: Rank Order
Write the value as a bare number.

Sample records with Rank Order:
What value of Rank Order has been recorded for this entry: C[C@H](N)C(=O)NCC(=O)N[C@@H](CCC(=O)O)C(=O)N[C@@H](CC(=O)O)C(=O)N1CCC[C@H]1C(=O)N[C@@H](Cc1c[nH]cn1)C(=O)N[C@@H](CO)C(=O)N[C@@H](Cc1ccccc1)C(=O)N[C@@H](Cc1ccc(O)cc1)C(=O)N[C@@H](Cc1ccccc1)C(=O)N1CCC[C@H]1C(=O)NCC(=O)N[C@@H](CCC(N)=O)C(=O)N[C@@H](Cc1ccccc1)C(=O)N[C@@H](C)C(=O)N[C@@H](Cc1ccccc1)C(=O)O [C16 (human)] (H-AGEDPHSFYFPGQFAF-OH; N-terminus and C-terminus assumed)
2

Next entry: C[C@H](N)C(=O)NCC(=O)N[C@@H](CCC(=O)O)C(=O)N[C@@H](CC(=O)O)C(=O)N1CCC[C@H]1C(=O)N[C@@H](Cc1c[nH]cn1)C(=O)N[C@@H](CO)C(=O)N[C@@H](Cc1ccccc1)C(=O)N[C@@H](Cc1ccc(O)cc1)C(=O)N[C@@H](Cc1ccccc1)C(=O)N1CCC[C@H]1C(=O)NCC(=O)N[C@@H](CCC(N)=O)C(=O)N[C@@H](Cc1ccccc1)C(=O)N[C@@H](C)C(=O)O [C15 (human)] (H-AGEDPHSFYFPGQFA-OH; N-terminus and C-terminus assumed)
3

Next entry: CC(C)C[C@H](NC(=O)[C@H](Cc1ccccc1)NC(=O)[C@H](Cc1ccc(O)cc1)NC(=O)CNC(=O)[C@H](Cc1c[nH]cn1)NC(=O)[C@@H]1CCCN1C(=O)[C@H](CC(=O)O)NC(=O)[C@H](CCC(=O)O)NC(=O)CNC(=O)[C@H](C)N)C(=O)N1CCC[C@H]1C(=O)NCC(=O)N[C@@H](CCC(N)=O)C(=O)N[C@@H](Cc1ccccc1)C(=O)N[C@@H](C)C(=O)O [mC15] (H-AGEDPHGYFLPGQFA-OH; N-terminus and C-terminus assumed)
4

More entries:
What value of Rank Order has been recorded for this entry: C[C@H](N)C(=O)NCC(=O)N[C@@H](CCC(=O)O)C(=O)N[C@@H](CC(=O)O)C(=O)N1CCC[C@H]1C(=O)N[C@@H](Cc1c[nH]cn1)C(=O)N[C@@H](CO)C(=O)N[C@@H](Cc1ccccc1)C(=O)N[C@@H](Cc1ccc(O)cc1)C(=O)N[C@@H](Cc1ccccc1)C(=O)N1CCC[C@H]1C(=O)NCC(=O)N[C@@H](CCC(N)=O)C(=O)N[C@@H](Cc1ccccc1)C(=O)N[C@@H](C)C(=O)N[C@@H](Cc1ccccc1)C(=O)N[C@@H](CO)C(=O)O [C17 (human)] (H-AGEDPHSFYFPGQFAFS-OH; N-terminus and C-terminus assumed)
1

* * *

Molecular target: GPR1 (Homo sapiens)
Test: PathHunter β-Arrestin assay, GPR1, agonist and antagonist mode
Experimental: The DiscoveRx PathHunter™ eXpress GPCR activity assay was employed to test agonist and antagonist activities of the chemerin peptides against the GPCRs ChemR23 and GPR1. […] The assay involves CHO cell lines that express 1) a GPCR of interest (e.g. ChemR23 or GPR1) that has a fragment of the βgal enzyme fused to the C-terminus of the receptor and 2) a β-arrestin fused to the main β-gal enzyme. […] A substrate is then added and luminescence is generated to detect β-arrestin recruitment. […]
Peptide text beside a SMILES is read from it.
VALUE TYPE: IC50

Sample records with IC50:
Param readout = IC50; param system = GPR1 (Homo sapiens); param query = C[C@H](N)C(=O)NCC(=O)N[C@@H](CCC(=O)O)C(=O)N[C@@H](CC(=O)O)C(=O)N1CCC[C@H]1C(=O)N[C@@H](Cc1c[nH]cn1)C(=O)N[C@@H](CO)C(=O)N[C@@H](Cc1ccccc1)C(=O)N[C@@H](Cc1ccc(O)cc1)C(=O)N[C@@H](Cc1ccccc1)C(=O)N1CCC[C@H]1C(=O)NCC(=O)N[C@@H](CCC(N)=O)C(=O)N[C@@H](Cc1ccccc1)C(=O)N[C@@H](C)C(=O)O [C15 (human)] (H-AGEDPHSFYFPGQFA-OH; N-terminus and C-terminus assumed) ; response: value
> 10 µM

Next entry: CC(C)C[C@H](NC(=O)[C@H](Cc1ccccc1)NC(=O)[C@H](Cc1ccc(O)cc1)NC(=O)CNC(=O)[C@H](Cc1c[nH]cn1)NC(=O)[C@@H]1CCCN1C(=O)[C@H](CC(=O)O)NC(=O)[C@H](CCC(=O)O)NC(=O)CNC(=O)[C@H](C)N)C(=O)N1CCC[C@H]1C(=O)NCC(=O)N[C@@H](CCC(N)=O)C(=O)N[C@@H](Cc1ccccc1)C(=O)N[C@@H](C)C(=O)O [mC15] (H-AGEDPHGYFLPGQFA-OH; N-terminus and C-terminus assumed)
> 10 µM

Lab note: next compound to report on.
Param readout = IC50; param system = GPR1 (Homo sapiens); param query = C[C@H](N)C(=O)NCC(=O)N[C@@H](CCC(=O)O)C(=O)N[C@@H](CC(=O)O)C(=O)N1CCC[C@H]1C(=O)N[C@@H](Cc1c[nH]cn1)C(=O)N[C@@H](CO)C(=O)N[C@@H](Cc1ccccc1)C(=O)N[C@@H](Cc1ccc(O)cc1)C(=O)N[C@@H](Cc1ccccc1)C(=O)N1CCC[C@H]1C(=O)NCC(=O)N[C@@H](CCC(N)=O)C(=O)N[C@@H](Cc1ccccc1)C(=O)N[C@@H](C)C(=O)N[C@@H](Cc1ccccc1)C(=O)N[C@@H](CO)C(=O)O [C17 (human)] (H-AGEDPHSFYFPGQFAFS-OH; N-terminus and C-terminus assumed) ; response: value
> 10 µM

Ref: patent US20140349943A1
